Reported Papp A→B values for a set of compounds
- method-description: Caco-2 cell monolayer membrane transport assay (Papp and recovery)
- Format: in vitro ADME
- cond: human, Caco-2, Caco-2, A-B, Mean; read-out: Papp A-B, Mean
recorded-metric: Papp A→B (×10⁻⁶ cm/s)

compound	recorded-metric	u	comparison-symbol	recorded-result
CO[C@H]1C(=O)[C@]2(C)[C@@H](OC)C[C@H]3OC[C@@]3(OC(C)=O)[C@H]2[C@H](OC(=O)c2ccccc2)[C@]23OC(=O)O[C@H]2[C@H](OC(=O)[C@H](O)[C@@H](NC(=O)OC(C)(C)C)c2ccccc2)C(C)=C1C3(C)C [PCMI-01]	Papp A→B	×10⁻⁶ cm/s	=	4.17
COC(=O)O[C@H]1C[C@H]2OC[C@@]2(OC(C)=O)[C@H]2[C@H](OC(=O)c3ccccc3)[C@]34OC(=O)O[C@H]3[C@H](OC(=O)[C@H](O)[C@H](CC(C)C)NC(=O)OC(C)(C)C)C(C)=C([C@@H](OC)C(=O)[C@]12C)C4(C)C [PCMI-20]	Papp A→B	×10⁻⁶ cm/s	=	0.92
COC(=O)O[C@H]1C(=O)[C@]2(C)[C@@H](OC)C[C@H]3OC[C@@]3(OC(C)=O)[C@H]2[C@H](OC(=O)c2ccccc2)[C@]23OC(=O)O[C@H]2[C@H](OC(=O)[C@H](O)[C@@H](NC(=O)OC(C)(C)C)c2ccccc2)C(C)=C1C3(C)C [PCMI-12]	Papp A→B	×10⁻⁶ cm/s	<	1.43
CO[C@H]1C(=O)[C@]2(C)[C@@H](OC(=O)N(C)C)C[C@H]3OC[C@@]3(OC(C)=O)[C@H]2[C@H](OC(=O)c2ccccc2)[C@]23OC(=O)O[C@H]2[C@H](OC(=O)[C@H](O)[C@H](CC(C)C)NC(=O)OC(C)(C)C)C(C)=C1C3(C)C [PCMI-16]	Papp A→B	×10⁻⁶ cm/s	=	1.64
CCSC(=O)O[C@H]1C(=O)[C@]2(C)[C@@H](OC)C[C@H]3OC[C@@]3(OC(C)=O)[C@H]2[C@H](OC(=O)c2ccccc2)[C@]23OC(=O)O[C@H]2[C@H](OC(=O)[C@H](O)[C@@H](NC(=O)OC(C)(C)C)c2ccccc2)C(C)=C1C3(C)C [PCMI-13]	Papp A→B	×10⁻⁶ cm/s	<	1.67
CO[C@H]1C(=O)[C@]2(C)[C@@H](OC)C[C@H]3OC[C@@]3(OC(C)=O)[C@H]2[C@H](OC(=O)c2ccccc2)[C@]23OC(=O)O[C@H]2[C@H](OC(=O)[C@H](O)[C@@H](NC(=O)N(C)C)c2ccccc2)C(C)=C1C3(C)C [PCMI-03]	Papp A→B	×10⁻⁶ cm/s	=	3.67
CO[C@H]1C(=O)[C@@]2(C)[C@H]([C@H](OC(=O)c3ccccc3)[C@]34OC(=O)O[C@H]3[C@H](OC(=O)[C@H](O)[C@@H](NC(=O)OC(C)(C)C)c3ccccc3)C(C)=C1C4(C)C)[C@]1(OC(C)=O)CO[C@@H]1C[C@@H]2O [PCMI-06]	Papp A→B	×10⁻⁶ cm/s	=	1.22
CO[C@H]1C[C@H]2OC[C@@]2(OC(C)=O)[C@H]2[C@H](OC(=O)c3ccccc3)[C@]34OC(=O)O[C@H]3[C@H](OC(=O)[C@H](O)[C@@H](NC(=O)N(C)C)c3ccccc3)C(C)=C([C@@H](OC(=O)N(C)C)C(=O)[C@]12C)C4(C)C [PCMI-11]	Papp A→B	×10⁻⁶ cm/s	=	1.13
CCSC(=O)O[C@H]1C[C@H]2OC[C@@]2(OC(C)=O)[C@H]2[C@H](OC(=O)c3ccccc3)[C@]34OC(=O)O[C@H]3[C@H](OC(=O)[C@H](O)[C@@H](NC(=O)OC(C)(C)C)c3ccccc3)C(C)=C([C@@H](OC)C(=O)[C@]12C)C4(C)C [PCMI-21]	Papp A→B	×10⁻⁶ cm/s	=	2.45
CO[C@H]1C(=O)[C@]2(C)CC[C@H]3OC[C@@]3(OC(C)=O)[C@H]2[C@H](OC(=O)c2ccccc2)[C@]23OC(=O)O[C@H]2[C@H](OC(=O)[C@H](O)[C@@H](NC(=O)OC(C)(C)C)c2ccccc2)C(C)=C1C3(C)C [PCMI-07]	Papp A→B	×10⁻⁶ cm/s	=	2.64
CO[C@H]1C(=O)[C@]2(C)[C@@H](OC(=O)N(C)C)C[C@H]3OC[C@@]3(OC(C)=O)[C@H]2[C@H](OC(=O)c2ccccc2)[C@]23OC(=O)O[C@H]2[C@H](OC(=O)[C@H](O)[C@@H](NC(=O)OC(C)(C)C)c2ccccc2)C(C)=C1C3(C)C [PCMI-14]	Papp A→B	×10⁻⁶ cm/s	=	3.04
CO[C@H]1C[C@H]2OC[C@@]2(OC(C)=O)[C@H]2[C@H](OC(=O)c3ccccc3)[C@]34OC(=O)O[C@H]3[C@H](OC(=O)[C@H](O)[C@@H](NC(=O)OC(C)(C)C)c3ccccc3)C(C)=C([C@@H](OC(=O)N(C)C)C(=O)[C@]12C)C4(C)C [PCMI-08]	Papp A→B	×10⁻⁶ cm/s	>	10
COC(=O)O[C@H]1C[C@H]2OC[C@@]2(OC(C)=O)[C@H]2[C@H](OC(=O)c3ccccc3)[C@]34OC(=O)O[C@H]3[C@H](OC(=O)[C@H](O)[C@@H](NC(=O)OC(C)(C)C)c3ccccn3)C(C)=C([C@@H](OC)C(=O)[C@]12C)C4(C)C [PCMI-18]	Papp A→B	×10⁻⁶ cm/s	=	2.49
COC(=O)O[C@H]1C[C@H]2OC[C@@]2(OC(C)=O)[C@H]2[C@H](OC(=O)c3ccccc3)[C@]34OC(=O)O[C@H]3[C@H](OC(=O)[C@H](O)[C@@H](NC(=O)N(C)C)c3ccccc3)C(C)=C([C@@H](OC)C(=O)[C@]12C)C4(C)C [PCMI-19]	Papp A→B	×10⁻⁶ cm/s	=	3.92
